Test system: Canis familiaris
Assay: Antiarrhythmic activity in Beagle dogs following i.v. administration; minimum effective dose to suppress ventricular ectopic rate >/=25% for a minimum duration of 10 min.
Type: functional, Canis lupus familiaris, Heart
Conditions: Canis lupus familiaris, Heart, iv, 10 min; read-out: MED
Assay metric: log10 minimal effective dose (log10 of the value in mg/kg)
The base-10 logarithm of minimal effective dose, taken with minimal effective dose in mg/kg, is what appears here.

Answered examples (8):
CC(C)N(CCC(C(N)=O)(c1ccccc1)c1ccccn1)C(C)C (centres undefined) [DISOPYRAMIDE] : 1.00
CC(C)N(CC[C@]1(c2ccccc2)C(=O)N(C)CN2CCCC[C@@H]21)C(C)C : 0.88
CC(C)N(CCC1(c2ccc(-c3ccccc3)cc2)C(=O)NCN2CCCCC21)C(C)C (centres undefined) : 0.70
CC(C)N(CCC1(c2ccc(-c3ccccc3)cc2)C(=O)N=CN2CCCCC21)C(C)C (centres undefined) : 0.40
CC(C)N(CC[C@]1(c2ccccc2)C(=O)N[C@@H](C)N2CCCC[C@@H]21)C(C)C : 1.00
CC1=NC(=O)C(CCN(C(C)C)C(C)C)(c2ccccc2)C2CCCCN12 (centres undefined) [ACTISOMIDE] : 0.95
CC(C)N(CCC1(c2ccccc2)C(=O)NC(c2ccccc2)N2CCCCC21)C(C)C (centres undefined) : 0.60
CC(C)N(CCC1(c2ccccc2Cl)C(=O)N=CN2CCCCC21)C(C)C (centres undefined) : 1.18

Asked: For the molecule shown here, CCC1=NC(=O)C(CCN(C(C)C)C(C)C)(c2ccccc2)C2CCCCN12 (centres undefined) , give the reported log10 minimal effective dose.
Given back: 1.10

Asked: If you can, please state the reported log10 minimal effective dose value of CCC1NC(=O)C(CCN(C(C)C)C(C)C)(c2ccccc2)C2CCCCN12 (centres undefined) .
Given back: 0.78

----------
Test system: Canis familiaris
Test: Antiarrhythmic activity in Beagle dogs following i.v. administration; minimum effective dose to suppress ventricular ectopic rate >/=25% for a minimum duration of 10 min.
Format: functional, Canis lupus familiaris, Heart
Conditions: Canis lupus familiaris, Heart, iv, 10 min; read-out: MED
Reported minimal effective dose values follow for various compounds
// units = mg/kg; emit number, no label

Field: example entries. Status: answers known.
CC(C)N(CCC1(c2ccccc2)C(=O)NC(C)N2CCCCC21)C(C)C (centres undefined) : 2.5
CC(C)N(CCC1(c2ccccc2Cl)C(=O)NCN2CCCCC21)C(C)C (centres undefined) : 7.5
CC(C)N(CCC1(c2ccccc2)C(=O)N=C(c2ccccc2)N2CCCCC21)C(C)C (centres undefined) : 1

Now look at this one.
Asked: Tell me the measured minimal effective dose of CC(C)N(CCC1(c2ccccc2)C(=O)N=CN2CCCCC21)C(C)C (centres undefined) , please.
Given back: 20
